Numbers sourced from patent US20160309708A1.

The entries below come with measured solubility limit in alkyl esters of polycarboxylic acids of this invention values attached.
- assay: Solubility limit of active ingredients in the alkyl esters of polycarboxylic acids at 25° C.
- Format: physicochemical
- measurement-conditions: under agitation, solvent: alkyl esters of polycarboxylic acids
measured-metric: solubility limit in alkyl esters of polycarboxylic acids of this invention (GRAMS PER LITER)

{"molecule": "CCCC1COC(Cn2cncn2)(c2ccc(Cl)cc2Cl)O1 (stereo not shown)", "measured": 1568}
{"molecule": "Cc1c(COC(=O)[C@@H]2[C@H](/C=C(\\Cl)C(F)(F)F)C2(C)C)cccc1-c1ccccc1 (racemic)", "measured": 702}
{"molecule": "CCOP(=S)(OCC)Oc1nc(Cl)c(Cl)cc1Cl", "measured": 900}
{"molecule": "CC(C)(C)C(O)(CCc1ccc(Cl)cc1)Cn1cncn1 (stereo not shown)", "measured": 240}
